- procedureText: Saturation solubility of drug substance in different dissolution media (incubator shaker, 24 hrs, HPLC)
- Format: physicochemical
- measurementContext: aqueous with cosolvent or surfactant or cyclodextrin, thermodynamic from solid, 0.1N HCl + 0.75% SDS, 37° C.
readout: solubility at 24 h (µg/mL)
// units = µg/mL; emit number, no label

Q: Hello, please tell me recorded solubility at 24 h for this one: "CC(=O)Nc1cccc(-n2c(=O)n(C3CC3)c(=O)c3c(Nc4ccc(I)cc4F)n(C)c(=O)c(C)c32)c1"
Ans: 70

----------
- procedureText: Saturation solubility of drug substance in different dissolution media (incubator shaker, 24 hrs, HPLC)
- Format: physicochemical
- measurementContext: aqueous buffer, thermodynamic from solid, pH 6.8 Phosphate Buffer, 37° C.
readout: solubility at 24 h

Q: Hello, please tell me recorded solubility at 24 h for this one: "CC(=O)Nc1cccc(-n2c(=O)n(C3CC3)c(=O)c3c(Nc4ccc(I)cc4F)n(C)c(=O)c(C)c32)c1"
Ans: 20 µg/mL

----------
- procedureText: Saturation solubility of drug substance in different dissolution media (incubator shaker, 24 hrs, HPLC)
- Type: physicochemical
- measurementContext: aqueous with cosolvent or surfactant or cyclodextrin, thermodynamic from solid, pH 7.0 Phosphate Buffer + 0.75% SDS, 37° C.
- Experimental: Solubility study of drug substance was carried out in different dissolution media. The saturated solutions of drug substance were prepared in the recommended dissolution media. Initial pH of the saturated solutions was noted. Then the solutions were allowed to shake for 24 hours in the incubator shaker at 150 RPM. The temperature was kept around 37° C.±0.5° C. After 24 hours of shaking, pH of saturated solutions was noted. […]
readout: solubility at 24 h (µg/mL)
// units = µg/mL; emit number, no label

Q: Hello, please tell me recorded solubility at 24 h for this one: CC(=O)Nc1cccc(-n2c(=O)n(C3CC3)c(=O)c3c(Nc4ccc(I)cc4F)n(C)c(=O)c(C)c32)c1 [Trametinib]
Ans: 10

----------
- procedureText: Saturation solubility of drug substance in different dissolution media (incubator shaker, 24 hrs, HPLC)
- Type: physicochemical
- measurementContext: aqueous buffer, thermodynamic from solid, pH 4.5 Acetate Buffer, 37° C.
readout: solubility at 24 h

Q: Hello, please tell me recorded solubility at 24 h for this one: CC(=O)Nc1cccc(-n2c(=O)n(C3CC3)c(=O)c3c(Nc4ccc(I)cc4F)n(C)c(=O)c(C)c32)c1 [Trametinib]
Ans: 10 µg/mL

----------
- procedureText: Saturation solubility of drug substance in different dissolution media (incubator shaker, 24 hrs, HPLC)
- Type: physicochemical
- measurementContext: aqueous with cosolvent or surfactant or cyclodextrin, thermodynamic from solid, pH 6.8 Phosphate Buffer + 0.75% SDS, 37° C.
readout: solubility at 24 h (µg/mL)
// units = µg/mL; emit number, no label

Q: Hello, please tell me recorded solubility at 24 h for this one: "CC(=O)Nc1cccc(-n2c(=O)n(C3CC3)c(=O)c3c(Nc4ccc(I)cc4F)n(C)c(=O)c(C)c32)c1"
Ans: 10

----------
- procedureText: Saturation solubility of drug substance in different dissolution media (incubator shaker, 24 hrs, HPLC)
- Assay type: physicochemical
- measurementContext: simulated gastric fluid, thermodynamic from solid, 0.1N HCl, 37° C.
readout: solubility at 24 h (µg/mL)
// units = µg/mL; emit number, no label

Q: Hello, please tell me recorded solubility at 24 h for this one: "CC(=O)Nc1cccc(-n2c(=O)n(C3CC3)c(=O)c3c(Nc4ccc(I)cc4F)n(C)c(=O)c(C)c32)c1"
Ans: 20
